// endpoint log10(IC50) / system cathepsin B (Bos taurus, UniProt P07688)
Endpoint name: log10(IC50) (log10 of the value in µM)

| Compound | Assayed target | log10(IC50) |
| --- | --- | --- |
| CCCC[C@H](NC(=O)[C@H](CC(C)C)NC(=O)OCc1ccccn1)C(=O)CSCc1ccco1 [28 (No. 59)] | cathepsin B (Bos taurus, UniProt P07688) | 0.32 |
| CSCC(=O)[C@H](CCc1ccccc1)NC(=O)[C@H](CC(C)C)NC(=O)COc1ccccc1 [203 (No. 536)] | cathepsin B (Bos taurus, UniProt P07688) | -0.47 |
| CCCC[C@H](NC(=O)[C@H](CC(C)C)NC(=O)COC1CCCCC1)C(=O)CSCc1ccco1 [35 (No. 81)] | cathepsin B (Bos taurus, UniProt P07688) | -0.15 |
| CCCC[C@H](NC(=O)[C@H](CC(C)C)NC(=O)Cc1csc2ccccc12)C(=O)CSCc1ccco1 [34 (No. 79)] | cathepsin B (Bos taurus, UniProt P07688) | -0.39 |
| CCCC[C@H](NC(=O)[C@H](CC(C)C)NC(=O)Cc1ccccc1)C(=O)CSCc1ccco1 [30 (No. 66)] | cathepsin B (Bos taurus, UniProt P07688) | -0.23 |
| CCCC[C@H](NC(=O)[C@H](CC(C)C)NC(=O)OCc1ccccc1)C(=O)CSCc1ccco1 [22 (No. 48)] | cathepsin B (Bos taurus, UniProt P07688) | -0.01 |
| CC(C)C[C@H](NC(=O)COc1ccccc1)C(=O)NC(Cc1cccc2ccccc12)C(=O)CSCc1ccco1 (stereo partly shown) [209 (No. 555)] | cathepsin B (Bos taurus, UniProt P07688) | 0.81 |

---

Biological target: cathepsin L (Rattus norvegicus)
Listing of recorded log10 of IC50 by entry.
Endpoint name: log10 of IC50 (log10 of the value in nM)

| Smi | log10 of IC50 |
| --- | --- |
| CC(C)C[C@H](NC(=O)OCc1ccccc1)C(=O)N[C@@H](CCC(=O)O)C(=O)CSCc1ccco1 | 4.04 |
| CCCC[C@H](NC(=O)[C@H](CC(C)C)NC(=O)COc1cccc(C)c1)C(=O)CSCc1ccco1 | 2.28 |
| CCCC[C@H](NC(=O)[C@H](CC(C)C)NC(=O)COc1cccc(F)c1)C(=O)CSCc1ccco1 | 2.65 |
| CSCC(=O)[C@H](CCc1ccccc1)NC(=O)[C@H](CC(C)C)NC(=O)OCc1ccccc1 | 2.59 |
| CC(C)C[C@H](NC(=O)COc1ccccc1)C(=O)N[C@@H](Cc1ccccc1)C(=O)CSCc1ccco1 | 3.51 |
| CCCC[C@H](NC(=O)[C@H](CC(C)C)NC(=O)OCc1ccccc1F)C(=O)CSCc1ccco1 | 3.04 |
| CCCC[C@H](NC(=O)[C@H](CC(C)C)NC(=O)COc1ccc(Cl)cc1)C(=O)CSCc1ccco1 | 2.93 |
| CC(C)C[C@H](NC(=O)Cc1cccc2ccccc12)C(=O)N[C@@H](Cc1ccccc1)C(=O)CSCc1ccco1 | 3.04 |
| CC(C)C[C@H](NC(=O)c1cc2ccccc2o1)C(=O)N[C@@H](Cc1ccccc1)C(=O)CSCc1ccco1 | 3.20 |
| CC(C)C[C@H](NC(=O)COc1ccccc1)C(=O)N[C@@H](CC1CCCCC1)C(=O)CSCc1ccco1 | 2.99 |
| CCCC[C@H](NC(=O)[C@H](CC(C)C)NC(=O)COc1ccccc1F)C(=O)CSCc1ccco1 | 3.11 |
| CC(C)C[C@H](NC(=O)OCc1ccccc1)C(=O)N[C@@H](Cc1ccccc1)C(=O)CN(C)Cc1ccco1 | 3.97 |
| CCCC[C@H](NC(=O)[C@H](CC(C)C)NC(=O)c1cc2ccccc2o1)C(=O)CSCc1ccco1 | 1.84 |
| CCCC[C@H](NC(=O)[C@H](CC(C)C)NC(=O)COC1CCCCC1)C(=O)CSCc1ccco1 | 3.04 |
| CSCC(=O)[C@H](CCc1ccccc1)NC(=O)[C@H](CC(C)C)NC(=O)COc1ccccc1 | 2.58 |

---

pIC50: −log10 of the molar value.
A short record of pIC50 observed with cathepsin L (Rattus norvegicus, UniProt P07154) follows.
Sequence (P07154 114-334): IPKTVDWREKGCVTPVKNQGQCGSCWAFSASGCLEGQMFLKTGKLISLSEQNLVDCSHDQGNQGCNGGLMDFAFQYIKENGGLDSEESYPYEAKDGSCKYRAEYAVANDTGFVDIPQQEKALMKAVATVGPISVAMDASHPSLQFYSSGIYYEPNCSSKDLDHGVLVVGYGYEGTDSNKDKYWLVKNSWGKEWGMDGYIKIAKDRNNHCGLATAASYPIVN

| Compound | Assayed target | pIC50 |
| --- | --- | --- |
| CCCC[C@H](NC(=O)[C@H](CC(C)C)NC(=O)COc1ccccc1C)C(=O)CSCc1ccco1 [44 (No. 96)] | cathepsin L (Rattus norvegicus, UniProt P07154) | 7.22 |
| CC(C)C[C@H](NC(=O)COc1ccccc1)C(=O)N[C@@H](Cc1ccc(Cl)cc1)C(=O)CSCc1ccco1 [197 (No. 511)] | cathepsin L (Rattus norvegicus, UniProt P07154) | 5.77 |
| CSCC(=O)[C@H](Cc1ccccc1)NC(=O)[C@H](CC(C)C)NC(=O)Cc1cccc2ccccc12 [120 (No. 256)] | cathepsin L (Rattus norvegicus, UniProt P07154) | 6.31 |
| CCCC[C@H](NC(=O)[C@H](CC(C)C)NC(=O)COc1ccc(Cl)cc1Cl)C(=O)CSCc1ccco1 [42 (No. 92)] | cathepsin L (Rattus norvegicus, UniProt P07154) | 6.13 |
| CC(C)C[C@H](NC(=O)C(C)Oc1ccccc1)C(=O)N[C@@H](Cc1ccccc1)C(=O)CSCc1ccco1 (stereo partly shown) [165 (No. 349)] | cathepsin L (Rattus norvegicus, UniProt P07154) | 5.72 |
| CCCC[C@H](NC(=O)[C@H](CC(C)C)NC(=O)c1cccc2ccccc12)C(=O)CSCc1ccco1 [83 (No. 161)] | cathepsin L (Rattus norvegicus, UniProt P07154) | 6.40 |
| CC(C)C[C@H](NC(=O)OCc1ccccc1)C(=O)N[C@@H](CC1CCCCC1)C(=O)CSCc1ccco1 [109 (No. 238)] | cathepsin L (Rattus norvegicus, UniProt P07154) | 5.92 |

---

Molecular target: m-calpain (Rattus norvegicus)
Construct: m-calpain was purified from rat brain; from tissue; host or cells: rat brain
Sequence (Q07009 20-700 limits assumed): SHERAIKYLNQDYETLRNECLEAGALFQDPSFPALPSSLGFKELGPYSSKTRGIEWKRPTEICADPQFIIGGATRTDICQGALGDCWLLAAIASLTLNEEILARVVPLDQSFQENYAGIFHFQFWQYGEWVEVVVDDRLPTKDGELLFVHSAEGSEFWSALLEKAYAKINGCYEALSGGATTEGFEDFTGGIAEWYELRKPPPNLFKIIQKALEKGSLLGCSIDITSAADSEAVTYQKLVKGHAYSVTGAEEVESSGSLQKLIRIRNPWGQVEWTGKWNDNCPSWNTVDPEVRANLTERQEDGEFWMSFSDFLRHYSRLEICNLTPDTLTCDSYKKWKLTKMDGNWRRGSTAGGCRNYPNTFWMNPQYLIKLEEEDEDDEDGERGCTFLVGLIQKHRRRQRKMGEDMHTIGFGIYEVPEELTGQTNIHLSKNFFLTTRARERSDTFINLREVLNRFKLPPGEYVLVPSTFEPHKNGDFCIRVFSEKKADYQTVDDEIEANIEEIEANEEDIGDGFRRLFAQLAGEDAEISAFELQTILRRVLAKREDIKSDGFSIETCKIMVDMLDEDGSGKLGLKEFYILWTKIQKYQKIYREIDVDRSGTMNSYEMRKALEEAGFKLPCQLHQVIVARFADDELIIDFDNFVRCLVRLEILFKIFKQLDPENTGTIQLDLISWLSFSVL
Sequence (Q64537 whole entry partner): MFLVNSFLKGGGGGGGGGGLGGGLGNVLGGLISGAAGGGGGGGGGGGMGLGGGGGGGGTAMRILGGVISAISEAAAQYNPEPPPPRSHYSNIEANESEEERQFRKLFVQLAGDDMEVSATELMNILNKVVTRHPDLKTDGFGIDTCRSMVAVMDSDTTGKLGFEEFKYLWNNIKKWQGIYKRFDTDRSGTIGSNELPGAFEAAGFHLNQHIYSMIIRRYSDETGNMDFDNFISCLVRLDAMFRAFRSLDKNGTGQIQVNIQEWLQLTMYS
Test: Thiol protease inhibitory activity, m-calpain purified from rat brain
Assay type: biochemical
Settings: Table 4
Listing of recorded IC50 by entry.
Endpoint name: IC50 (µM)

| Molecule | Endpoint name | Measured |
| --- | --- | --- |
| CCCC[C@H](NC(=O)[C@H](CC(C)C)NC(=O)C=Cc1ccc(OC)cc1)C(=O)CSCc1ccco1 [84 (No. 165)] | IC50 | 2.1 |
| CCCC[C@H](NC(=O)[C@H](CC(C)C)NC(=O)c1ccc(OC)cc1)C(=O)CSCc1ccco1 [79 (No. 153)] | IC50 | 1.9 |
| CCCC[C@H](NC(=O)[C@H](CC(C)C)NC(=O)c1ccc(C)cc1)C(=O)CSCc1ccco1 [71 (No. 142)] | IC50 | 4.2 |
| CCCC[C@H](NC(=O)[C@H](CC(C)C)NC(=O)c1ccc(F)cc1)C(=O)CSCc1ccco1 [57 (No. 119)] | IC50 | 5.3 |
| CCCC[C@H](NC(=O)[C@H](CC(C)C)NC(=O)Cc1cccc2c1OCO2)C(=O)CSCc1ccco1 [32 (No. 73)] | IC50 | 6.2 |

---

Molecular target: papain (Carica papaya, UniProt P00784)
Sequence (P00784 134-345): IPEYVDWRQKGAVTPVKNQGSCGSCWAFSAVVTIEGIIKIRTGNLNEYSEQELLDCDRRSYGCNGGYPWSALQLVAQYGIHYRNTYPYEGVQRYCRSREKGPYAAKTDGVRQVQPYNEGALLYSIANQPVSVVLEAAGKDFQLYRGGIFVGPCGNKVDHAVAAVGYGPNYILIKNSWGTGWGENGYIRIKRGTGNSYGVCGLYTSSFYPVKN
Experiment: Thiol protease inhibitory activity, papain (P-3125, Sigma)
Assay type: biochemical
Conditions: Table 3; read-out: IC50 papain

| Compound | Units label | Bound operator | IC50 |
| --- | --- | --- | --- |
| CCCC[C@H](NC(=O)[C@H](CC(C)C)NC(=O)COc1ccc(F)cc1)C(=O)CSCc1ccco1 [38 (No. 87)] | µM | = | 0.42 |
| CCCC[C@H](NC(=O)[C@H](CC(C)C)NC(=O)COc1cccc2ccccc12)C(=O)CSCc1ccco1 [52 (No. 114)] | µM | = | 0.34 |
| CCCC[C@H](NC(=O)[C@H](CC(C)C)NC(=O)c1cc2ccccc2o1)C(=O)CSCc1ccco1 [91 (No. 180)] | µM | = | 0.16 |
| CSCC(=O)[C@H](CCc1ccccc1)NC(=O)[C@H](CC(C)C)NC(=O)OCc1ccccc1 [202 (No. 534)] | µM | > | 100 |
| CC(C)C[C@H](NC(=O)Cc1ccc2ccccc2c1)C(=O)N[C@@H](Cc1ccccc1)C(=O)CSCc1ccco1 [160 (No. 334)] | µM | = | 35 |
| CCCC[C@H](NC(=O)[C@H](CC(C)C)NC(=O)COc1ccc2ccccc2c1)C(=O)CSCc1ccco1 [53 (No. 115)] | µM | = | 9.2 |
| CCCC[C@H](NC(=O)[C@H](CC(C)C)NC(=O)COc1ccccc1F)C(=O)CSCc1ccco1 [36 (No. 85)] | µM | = | 26 |
